Origin of values: patent US20240199618A1

# TARGET_UNDER_TEST: human NK-3 receptor (Homo sapiens (Human), UniProt P29371)
# Sequence (P29371 whole entry): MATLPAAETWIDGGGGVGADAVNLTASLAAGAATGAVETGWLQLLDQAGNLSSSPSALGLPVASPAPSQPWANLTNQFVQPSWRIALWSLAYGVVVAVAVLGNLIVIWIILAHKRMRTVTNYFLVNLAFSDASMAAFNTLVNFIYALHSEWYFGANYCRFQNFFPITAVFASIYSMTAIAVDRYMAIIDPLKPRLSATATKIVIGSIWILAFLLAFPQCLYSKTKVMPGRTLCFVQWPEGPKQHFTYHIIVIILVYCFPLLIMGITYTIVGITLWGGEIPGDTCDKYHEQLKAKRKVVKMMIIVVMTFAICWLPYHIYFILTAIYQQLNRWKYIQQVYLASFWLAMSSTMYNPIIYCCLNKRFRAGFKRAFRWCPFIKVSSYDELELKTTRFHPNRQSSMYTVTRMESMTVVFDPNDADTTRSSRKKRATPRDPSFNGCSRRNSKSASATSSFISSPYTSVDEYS
# PROTOCOL_DETAILS: Aequorin functional assay with human NK-3 receptor (antagonist testing vs NKA)
# MEASUREMENT_PARAMETERS: CHO cells, NKA at EC80 (3 nM); read-out: Functional assay: Aequorin assay with human NK-3 receptor hNK-3-AEQ (antagonist IC50)
MEASUREMENT_NAME: IC50 (nM)

// worked examples, IC50 included
COMPOUND | TARGET_UNDER_TEST | UNIT_INFO | IC50
Cc1ccc(C(=O)N2CCn3c(-c4nc(C)ns4)nnc3[C@H]2C)cc1 | human NK-3 receptor (Homo sapiens (Human), UniProt P29371) | nM | 110
Cc1nsc(-c2nnc3n2CCN(C(=O)c2ccc(Cl)cc2)C3C)n1 (racemic) | human NK-3 receptor (Homo sapiens (Human), UniProt P29371) | nM | 52
COc1cc(C(=O)N2CCn3c(-c4nc(C)ns4)nnc3[C@H]2C)ccc1F | human NK-3 receptor (Homo sapiens (Human), UniProt P29371) | nM | 110
Cc1nsc(-c2nnc3n2CCN(C(=O)c2cccc(F)c2)[C@@H]3C)n1 | human NK-3 receptor (Homo sapiens (Human), UniProt P29371) | nM | 50
CC(F)c1noc(-c2nnc3n2CCN(C(=O)c2ccc(F)cc2)[C@@H]3C)n1 (single isomer, unassigned) [Compound 45-2] | human NK-3 receptor (Homo sapiens (Human), UniProt P29371) | nM | 148

A. Cc1nsc(-c2nnc3n2CCN(C(=O)c2ccc(F)c(F)c2F)[C@@H]3C)n1
B. CCc1noc(-c2nnc3n2CCN(C(=O)c2ccc(F)cc2)C3C)n1 (racemic)
C. C[C@@H]1c2nnc(-c3nc(CC(F)(F)F)no3)n2CCN1C(=O)c1ccc(F)cc1
D. Cc1nsc(-c2nnc3n2CCN(C(=O)c2cc(F)c(F)c(F)c2F)C3C)n1 (racemic)
[ask] Hello, I need these entries ordered by IC50, highest reading first. Thanks! // rank by listing labels in the order requested
[reply] C, B, D, A

P. Cc1nsc(-c2nnc3n2CCN(C(=O)c2ccc(F)c(Cl)c2)[C@@H]3C)n1
Q. Cc1nsc(-c2nnc3n2CCN(C(=O)c2ccccc2)[C@@H]3C)n1
[ask] From the items above, decide which of P and Q has the lower IC50 reading. Give the label of your selection.
[reply] P

###

# TARGET_UNDER_TEST: human NK-3 receptor (Homo sapiens (Human))
# PROTOCOL_DETAILS: 3H-SB222200 binding competition assay with human NK-3 receptor
# MEASUREMENT_PARAMETERS: Table 3 (selectivity table); read-out: hNK-3 (Ki)
pKi: −log10 of the molar value.
MEASUREMENT_NAME: pKi

COMPOUND | pKi
Cc1nsc(-c2nnc3n2CCN(C(=O)c2ccccc2)[C@@H]3C)n1 [Compound 20] | 7.22
Cc1nsc(-c2nnc3n2CCN(C(=O)c2ccc(Cl)cc2)[C@@H]3C)n1 [Compound 3] | 7.72
Cc1nsc(-c2nnc3n2CCN(C(=O)c2cc(F)c(F)c(F)c2)[C@@H]3C)n1 [Compound 7] | 7.59
CC(F)c1noc(-c2nnc3n2CCN(C(=O)c2ccc(F)cc2)[C@@H]3C)n1 (single isomer, unassigned) [Compound 45-1] | 7.00
COc1cc(C(=O)N2CCn3c(-c4nc(C)ns4)nnc3[C@H]2C)ccc1F [Compound 25] | 7.07
CC(F)c1noc(-c2nnc3n2CCN(C(=O)c2ccc(F)cc2)[C@@H]3C)n1 (single isomer, unassigned) [Compound 45-2] | 7.08
Cc1nsc(-c2nnc3n2CCN(C(=O)c2ccc(F)c(Cl)c2)[C@@H]3C)n1 [Compound 6] | 7.62
CCc1nsc(-c2nnc3n2CCN(C(=O)c2ccc(F)cc2)C3C)n1 (racemic) [Compound 39] | 7.55
Cc1nsc(-c2nnc3n2CCN(C(=O)c2ccccc2C)[C@@H]3C)n1 [Compound 26] | 7.06
Cc1nsc(-c2nnc3n2CCN(C(=O)c2ccc(Cl)cc2)C3C)n1 (racemic) [Compound 37] | 7.39

a. Cc1nsc(-c2nnc3n2CCN(C(=O)c2ccc(Cl)c(F)c2)C3C)n1 (racemic) [Compound 36]
b. Cc1nsc(-c2nnc3n2CCN(C(=O)c2ccc(F)c(Cl)c2)C3C)n1 (racemic) [Compound 35]
[ask] From the items above, decide which of a and b has the lower pKi reading. Give the label of your selection.
[reply] b

P. CCc1noc(-c2nnc3n2CCN(C(=O)c2ccc(F)cc2)[C@@H]3C)n1 [Compound 13]
Q. CC[C@@H]1c2nnc(-c3nc(C)ns3)n2CCN1C(=O)c1ccc(F)cc1 [Compound 22]
[ask] In the pair P and Q , the larger recorded pKi belongs to which? Give the label of your selection.
[reply] P

1. Cc1nsc(-c2nnc3n2CCN(C(=O)c2ccc(F)cc2F)[C@@H]3C)n1 [Compound 18]
2. Cc1nsc(-c2nnc3n2CCN(C(=O)c2ccc(F)c(F)c2F)[C@@H]3C)n1 [Compound 8]
[ask] In the pair 1 and 2 , the larger recorded pKi belongs to which? Give the label of your selection.
[reply] 2
(2: 7.59, 1: 7.27)

P. Cc1nsc(-c2nnc3n2CCN(C(=O)c2ccc(F)cc2)C3C)n1 (racemic) [Compound 14]
Q. Cc1nsc(-c2nnc3n2CCN(C(=O)c2ccc(F)c(F)c2F)C3C)n1 (racemic) [Compound 33]
[ask] In the pair P and Q , the larger recorded pKi belongs to which? Give the label of your selection.
[reply] P
(P: 7.38, Q: 7.05)

P. Cc1nsc(-c2nnc3n2CCN(C(=O)c2cc(F)c(F)c(F)c2F)[C@@H]3C)n1 [Compound 10]
Q. C[C@@H]1c2nnc(-c3nc(C(C)(F)F)no3)n2CCN1C(=O)c1ccc(F)cc1 [Compound 43]
[ask] From the items above, decide which of P and Q has the lower pKi reading. Give the label of your selection.
[reply] Q
(Q: 7.23, P: 7.51)
